Test: Serum stability assay
Assay type: in vitro ADME
Conditions: human serum, 37 °C; mutant vs parent L2β or D4β
Numbered stars: 1 amine (or outer) side, 2 acyl side, 3 side chain; on linkers, the order of the positions; unused ones are H or OH. Bridge positions count the residues as written; N and C are the ends. Square brackets hold non-standard residues; d marks the D form. Peptide text beside a SMILES is read from it. ξ: configuration not given here. ξβ3hPhg = O=C(CC(N[*:1])c1ccccc1)[*:2]; βAla = NCCC(=O)O
result.type: fold lower t1/2 than the parent peptide (fold)
Answers are plain numbers, in fold.

CC(C)[C@@H]1NC(=O)[C@H](CCCNC(=N)N)NC(=O)[C@H](Cc2ccc(O)cc2)NC(=O)[C@H](C(C)C)NC(=O)[C@H](C(C)C)NC(=O)[C@H](CCCNC(=N)N)NC(=O)[C@H](CC(=O)O)NC(=O)[C@H](CC(=O)O)NC(=O)CNC(=O)[C@H](Cc2ccc(O)cc2)NC(=O)[C@H](Cc2ccc(O)cc2)NC(=O)[C@H](Cc2ccccc2)NC(=O)[C@@H](Cc2ccc(O)cc2)NC(=O)CSC[C@@H](C(=O)NCC(N)=O)NC(=O)CC(c2ccccc2)NC1=O (stereo partly drawn) [D4α.1] ({CH2CO}-[dY]FYYGDDRVVYRV[ξβ3hPhg]CG-NH2; thioether N-15); 2

# evaluate next
Could you please provide reported fold lower t1/2 than the parent peptide for CC(C)[C@@H]1NC(=O)[C@H](CCCNC(=N)N)NC(=O)[C@H](Cc2ccc(O)cc2)NC(=O)[C@H](C(C)C)NC(=O)[C@H](C(C)C)NC(=O)[C@H](CCCNC(=N)N)NC(=O)[C@H](CC(=O)O)NC(=O)[C@H](CC(=O)O)NC(=O)CCNC(=O)[C@H](Cc2ccc(O)cc2)NC(=O)[C@H](Cc2ccc(O)cc2)NC(=O)[C@H](Cc2ccccc2)NC(=O)[C@@H](Cc2ccc(O)cc2)NC(=O)CSC[C@@H](C(=O)NCC(N)=O)NC(=O)[C@H](C)NC1=O [D4A.2] ({CH2CO}-[dY]FYY[βAla]DDRVVYRVACG-NH2; thioether N-15) ? Thanks!
2.6

---

Assay: Serum stability assay
Type: in vitro ADME
Settings: human serum, 37 °C; mutant vs parent L2β or D4β
Numbered stars: 1 amine (or outer) side, 2 acyl side, 3 side chain; on linkers, the order of the positions; unused ones are H or OH. Bridge positions count the residues as written; N and C are the ends. Square brackets hold non-standard residues; d marks the D form. Peptide text beside a SMILES is read from it. ξ: configuration not given here. ξβ3hPhg = O=C(CC(N[*:1])c1ccccc1)[*:2]
result.type: fold lower t1/2 than the parent peptide
Please provide the amount together with its unit, number first.

Could you please provide reported fold lower t1/2 than the parent peptide for CC(C)[C@@H]1NC(=O)[C@H](CCCNC(=N)N)NC(=O)[C@H](Cc2ccc(O)cc2)NC(=O)[C@H](C(C)C)NC(=O)[C@H](C(C)C)NC(=O)[C@H](CCCNC(=N)N)NC(=O)[C@H](CC(=O)O)NC(=O)[C@H](CC(=O)O)NC(=O)[C@H](C)NC(=O)[C@H](Cc2ccc(O)cc2)NC(=O)[C@H](Cc2ccc(O)cc2)NC(=O)[C@H](Cc2ccccc2)NC(=O)[C@@H](Cc2ccc(O)cc2)NC(=O)CSC[C@@H](C(=O)NCC(N)=O)NC(=O)CC(c2ccccc2)NC1=O (stereo partly drawn) [D4A.1] ({CH2CO}-[dY]FYYADDRVVYRV[ξβ3hPhg]CG-NH2; thioether N-15) ? Thanks!
26 fold
